Ok so here's the combined literature set: IC50 for Proto-oncogene tyrosine-protein kinase Src (Homo sapiens).

Solved entries:
1) O=C1NC(=O)C2=C1c1cn(c3ccccc13)CCCC(COCc1ccccc1)CCn1cc2c2ccccc21 (racemic): > 100 µM
2) CCCS(=O)(=O)Nc1ccc(F)c(C(=O)c2c[nH]c3ncc(-c4cnn(C)c4)cc23)c1Cl: ≤ 10 µM

Proto-oncogene tyrosine-protein kinase Src (Homo sapiens) / IC50 / CCN(CC)CCOc1ccc(Nc2ncc3c(n2)N(C)C(=O)N(c2cc(NC(=O)c4ccc(OC)cc4)ccc2Cl)C3)cc1 : value? 0.001 to 0.015 µM

###

pIC50: −log10 of the molar value.
Ok so here's the combined literature set: pIC50 for Proto-oncogene tyrosine-protein kinase Src (Homo sapiens, UniProt P12931).

Proto-oncogene tyrosine-protein kinase Src (Homo sapiens, UniProt P12931) / pIC50 / N#Cc1cnc2[nH]cc(C(=O)c3cccc(NS(=O)(=O)c4ccccc4F)c3F)c2c1 : value? ≥ 5.00

Proto-oncogene tyrosine-protein kinase Src (Homo sapiens, UniProt P12931) / pIC50 / CCS(=O)(=O)Nc1ccc(F)c(C(=O)c2c[nH]c3nccc(Cl)c23)c1F : value? ≥ 5.00

Proto-oncogene tyrosine-protein kinase Src (Homo sapiens, UniProt P12931) / pIC50 / O=C(c1c(F)ccc(NS(=O)(=O)c2ccc3oc(=O)ccc3c2)c1F)c1c[nH]c2ncc(Cl)cc12 : value? ≥ 5.00

Proto-oncogene tyrosine-protein kinase Src (Homo sapiens, UniProt P12931) / pIC50 / Cc1ccccc1C(=O)Nc1cnc2[nH]c(-c3ccccc3)cc2c1 : value? 6.52 to 8.30

Proto-oncogene tyrosine-protein kinase Src (Homo sapiens, UniProt P12931) / pIC50 / CCCS(=O)(=O)Nc1ccc(F)c(C(=O)c2c[nH]c3ncc(-c4cccnc4)cc23)c1F : value? ≥ 5.00

###

Ok so here's the combined literature set: IC50 for UniProt:P12931.

Solved entries:
1. Cc1cccc(Oc2ccc(-c3c(C#C[C@@H]4[C@H]5CN(C(=O)/C=C/CN(C)C)C[C@@H]45)n(C)c4ncnc(N)c34)cc2)n1: 10 to 1000 nM
2. C#Cc1ccnc2[nH]cc(C(=O)c3c(F)ccc(NS(=O)(=O)c4ccc(C(F)(F)F)cc4)c3F)c12: ~1000 nM
3. C=CS(=O)(=O)N1CC(N2CCC(C#Cc3c(-c4ccc(Oc5ccccc5)cc4)c4c(N)ncnc4n3C(C)C)CC2)C1: ≤ 10 nM
4. Cn1c(=O)c(-c2c(Cl)cccc2Cl)cc2cnc(NCCCCN3CCOCC3)cc21: 50 nM
5. CNc1ccc(-c2c3nc4c(cnn4c2N)C(=O)NC[C@H](C)Oc2ncc(F)cc2CN3)cc1: 2.1 nM

UniProt:P12931 / IC50 / CCCS(=O)(=O)Nc1ccc(F)c(C(=O)c2c[nH]c3ncc(-c4cncnc4)cc23)c1F : value? ≤ 10000 nM

UniProt:P12931 / IC50 / O=C(c1c(F)ccc(NS(=O)(=O)C2CCCC2)c1F)c1c[nH]c2ncc(Cl)cc12 : value? ≤ 10000 nM

UniProt:P12931 / IC50 / CN(C)CC=CC(=O)N1CC2C(C#Cc3c(-c4cccc5c4OCO5)c4c(N)ncnc4n3C)C2C1 (centres unmarked) : value? ≤ 10 nM

UniProt:P12931 / IC50 / C=CC(=O)Nc1ccc(C)cc1Nc1nc(Nc2ccc(N3CCN(C)CC3)cc2)nc2ccsc12 : value? 100 to 1000 nM

UniProt:P12931 / IC50 / N#Cc1ccnc2[nH]cc(C(=O)c3c(F)ccc(NS(=O)(=O)CC(F)(F)F)c3F)c12 : value? ≤ 10000 nM

UniProt:P12931 / IC50 / C=CC(=O)N1CCC(C#Cc2c(-c3ccc(Oc4ccccc4)cc3)c3c(N)ncnc3n2C(C)c2noc(COC)n2)CC1 (centres unmarked) : value? 10 to 1000 nM
